# System: EKVX
# TEST_PROTOCOL: relative viability (nuclei count vs DMSO), 5 days (fraction); higher = more cells survive
# PARTICULARS: first compound 0.253 µM
PROPERTY_NAME: relative viability
Output spec: single numeric token, no unit.

COMPOUND	relative viability
Nc1cccc2c1CN(C1CCC(=O)NC1=O)C2=O (centres undefined) [Lenalidomide] + Cc1nc(Nc2ncc(C(=O)Nc3c(C)cccc3Cl)s2)cc(N2CCN(CCO)CC2)n1 [Dasatinib] (partner 0.075 µM)	0.613
Nc1cccc2c1CN(C1CCC(=O)NC1=O)C2=O (centres undefined) [Lenalidomide] + O=C(c1cc(Cc2n[nH]c(=O)c3ccccc23)ccc1F)N1CCN(C(=O)C2CC2)CC1 [Olaparib] (partner 8 µM)	0.776
Nc1cccc2c1CN(C1CCC(=O)NC1=O)C2=O (centres undefined) [Lenalidomide] + N=C(N)NC(=N)NCCc1ccccc1 [Phenformin] (partner 250 µM)	0.23

Next:
(Q) Which relative viability is listed for Nc1cccc2c1CN(C1CCC(=O)NC1=O)C2=O (centres undefined) [Lenalidomide] + Cc1cc(Nc2cc(N3CCN(C)CC3)nc(Sc3ccc(NC(=O)C4CC4)cc3)n2)n[nH]1 [Tozasertib] (partner 0.1 µM) ?
(A) 0.396

Each recorded value in this set is attributed to the supplement of paper PMC10307832.
